# Tested on: RXRa DBDmut IVT, anti-RXR (DBD mutation: RXRa K156A/R161A, NR concentration 90 nM)
# TEST NAME: PBM binding z-score (relative to random genomic background probes); higher = stronger binding; sequences stand for … in GC…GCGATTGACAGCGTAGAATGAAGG
Respond with class 1 for PBM binding z-score values of 0.3 and above, class 0 for values below.

Field: example entries. Status: answers known.
>  <SEQUENCE DATA>
CCTAGCAGGCCAATCTGGGTCACGCAAGGCTTGA

>  <QUALITATIVE LABEL>
class 0

$$$$
>  <SEQUENCE DATA>
AGAACGAGGGCAATGAGTTGATAGCACGGGTGGC

>  <QUALITATIVE LABEL>
class 1

$$$$
>  <SEQUENCE DATA>
CAAACTAGTTCACAGAGGTCAAAGTCCGTGCGTA

>  <QUALITATIVE LABEL>
class 1

$$$$
>  <SEQUENCE DATA>
TCAGACAGGTGAAGGTAACTCGGGTACGCAGTCG

>  <QUALITATIVE LABEL>
class 1

$$$$
>  <SEQUENCE DATA>
GGAACGAGGGCAACTTGATAGCAGAGTTTGATGG

>  <QUALITATIVE LABEL>
class 1

$$$$
>  <SEQUENCE DATA>
CCTAGTTGGCCAGGAGGTCACACACCGGATATGA

>  <QUALITATIVE LABEL>
class 1

$$$$
>  <SEQUENCE DATA>
AATACAGGGTCATCGTAGGCCAGATTACGCACAG

>  <QUALITATIVE LABEL>
class 1

$$$$
>  <SEQUENCE DATA>
TGAAGGAGGTTATAAGATCAGGGAACGTTGCAAA

>  <QUALITATIVE LABEL>
class 0

$$$$
>  <SEQUENCE DATA>
GCTTACGGGTCAAAGGTTATCGCATGAATAGAAT

>  <QUALITATIVE LABEL>
class 1

$$$$
>  <SEQUENCE DATA>
CAAACTAGGTCACCGGAAGCTCAAAGTCCGCATG

>  <QUALITATIVE LABEL>
class 1

$$$$

Enquiry: Decide: PBM binding z-score of TAGCCTAGGTCATTGAGGGGCCAGTATAGAAAGC >= 0.3?
Return: class 1

Enquiry: Kindly determine if PBM binding z-score recorded for ACTATTAGTTGACTTAAGGCAACCGATACGACGC is above or exactly 0.3.
Return: class 1

Enquiry: Please indicate if the recorded PBM binding z-score for AGATGTAGGTTAGCTGGGGTCATTCAGACTAGGC meets or exceeds 0.3.
Return: class 1

Enquiry: Does ATCTCTAGGTAACCAAGTTCTGTGAATGCCGAAC have a reported PBM binding z-score of at least 0.3?
Return: class 0

Enquiry: Is PBM binding z-score at least 0.3? Consider CTCGAAAGGTCGGTTGAGGTGAGTATCCGGATAA
Return: class 1

Enquiry: Quick check: does AGTCAAAGTTCAGGCCGAGGTAACGTAAAGCACG have PBM binding z-score greater than or equal to 0.3?
Return: class 1

Enquiry: Tell me whether PBM binding z-score is at least 0.3 here: GCATATAGGTACTACAAGGTGAAAGTCCGATTGT
Return: class 0
